- system: recombinant human ALK5 (TGF-βR1) protein (Homo sapiens, UniProt P36897)
- Sequence (P36897 34-503): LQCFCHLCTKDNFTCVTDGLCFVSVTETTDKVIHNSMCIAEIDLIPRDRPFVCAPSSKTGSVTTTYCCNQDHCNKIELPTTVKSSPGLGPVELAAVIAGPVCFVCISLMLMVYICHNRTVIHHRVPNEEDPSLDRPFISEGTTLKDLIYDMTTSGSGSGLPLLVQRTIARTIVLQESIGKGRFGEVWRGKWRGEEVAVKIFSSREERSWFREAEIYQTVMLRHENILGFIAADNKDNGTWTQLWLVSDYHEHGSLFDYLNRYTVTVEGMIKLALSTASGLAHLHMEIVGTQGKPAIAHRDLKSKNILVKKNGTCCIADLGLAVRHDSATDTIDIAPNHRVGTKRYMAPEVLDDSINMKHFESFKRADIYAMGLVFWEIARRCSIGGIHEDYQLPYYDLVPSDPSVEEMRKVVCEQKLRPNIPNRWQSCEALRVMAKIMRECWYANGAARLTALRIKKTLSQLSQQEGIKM
- method: Biochemical ALK5 (TGF-βR1) assay to measure pKi (LANCE Ultra ULight kinase assay)
- conditions: apparent pKi, converted from pIC50 using the Cheng-Prusoff equation
pKi: −log10 of the molar value.
measure: pKi

Example entries begin here.
**Query** I'm curious: which pKi was measured for `CC(C)N1CCN(CCNc2cnc3ccc(-c4c(-c5cc(Cl)ccc5F)nc5ccccn45)cc3c2)CC1` tested on recombinant human ALK5 (TGF-βR1) protein (Homo sapiens, UniProt P36897)?
**Result** 8.50 to 9.40

**Query** I'm curious: which pKi was measured for CN(C)C1CCN(c2cnc3ccc(-c4nc[nH]c4-c4cc(Cl)ccc4F)nc3c2)C1 (racemic) tested on recombinant human ALK5 (TGF-βR1) protein (Homo sapiens, UniProt P36897)?
**Result** 9.50 to 10.40

**Query** I'm curious: which pKi was measured for `Fc1ccc(Cl)cc1-c1n[nH]cc1-c1ccc2ncc(-c3nnn4c3CNCC4)cc2n1` tested on recombinant human ALK5 (TGF-βR1) protein (Homo sapiens, UniProt P36897)?
**Result** 9.50 to 10.40

**Query** I'm curious: which pKi was measured for `COCc1cccc(-c2n[nH]cc2-c2ccc3ncc(N4CCNCC4)cc3n2)c1` tested on recombinant human ALK5 (TGF-βR1) protein (Homo sapiens, UniProt P36897)?
**Result** 7.50 to 8.40

**Query** I'm curious: which pKi was measured for `CNCCn1cc(-c2cnc3ccc(-c4nc[nH]c4-c4cc(Cl)ccc4F)nc3c2)cn1` tested on recombinant human ALK5 (TGF-βR1) protein (Homo sapiens, UniProt P36897)?
**Result** 9.50 to 10.40

**Query** I'm curious: which pKi was measured for `NC(=O)c1coc(-c2cnc3ccc(-c4c[nH]nc4-c4cc(Cl)ccc4F)nc3c2)n1` tested on recombinant human ALK5 (TGF-βR1) protein (Homo sapiens, UniProt P36897)?
**Result** 9.50 to 10.40

Further cases:
**Query** I'm curious: which pKi was measured for `Fc1ccc(-c2n[nH]cc2-c2ccc3ncc(-c4cn[nH]c4)cc3n2)cc1F` tested on recombinant human ALK5 (TGF-βR1) protein (Homo sapiens, UniProt P36897)?
**Result** 8.50 to 9.40

* * *

- System: TGF-β-stimulated SMAD3 phosphorylation in BEAS-2B cells
- method: Cellular ALK5 potency assay, inhibition of TGF-β stimulated pSMAD3 formation in BEAS-2B cells
- Format: cell-based
- conditions: Homo sapiens, inhibition of TGF-β (10 ng/mL) stimulated pSMAD3 formation, 1 hour compound incubation, read-out: BEAS2B pIC50 (converted)
- Protocol: Example 255: Cellular ALK5 Potency Assay to Measure pIC50, Inhibition of TGF-β Stimulated pSMAD3 Formation in BEAS-2B Cells The potency of compounds of the present disclosure for inhibition of TGF-β-stimulated SMAD3 phosphorylation was measured in BEAS-2B cells, a human lung epithelial cell line. […] For the assay, BEAS-2B cells were seeded at 7,500 cells/well (25 μL/well) in a 384-well plate and cultured overnight. […] Data are expressed as pIC50 (negative decadic logarithm IC50) values.
IC50 values by entry

**Query** Find the recorded IC50 belonging to Fc1ccc(Cl)cc1-c1[nH]nnc1-c1ccc2ncc(-c3c[nH]nc3C(F)(F)F)cc2n1 [Compound 5-2] and report it.
**Result** 25.1 to 158 nM

Further cases:
**Query** Find the recorded IC50 belonging to Fc1ccc(Cl)cc1-c1nc2ccccn2c1-c1ccc2ncc(-c3cnn4c3CNCC4)cc2n1 [Compound 3-7] and report it.
**Result** 25.1 to 158 nM

**Query** Find the recorded IC50 belonging to Fc1cc(F)c(-c2n[nH]cc2-c2ccc3ncc(NC4CCNCC4)cc3n2)cc1Cl [Compound 6-10] and report it.
**Result** 200 to 1260 nM

**Query** Find the recorded IC50 belonging to Fc1cc(F)c(-c2n[nH]cc2-c2ccc3ncc(-c4ncn5c4NCC5)cc3n2)cc1Cl [Compound 6-55] and report it.
**Result** 25.1 to 158 nM

**Query** Find the recorded IC50 belonging to Fc1cc(F)c(-c2n[nH]cc2-c2ccc3ncc(-c4[nH]nc5c4CCNC5)cc3n2)cc1Cl [Compound 6-53] and report it.
**Result** 25.1 to 158 nM

**Query** Find the recorded IC50 belonging to Fc1ccc(Cl)cc1-c1nc2ccccn2c1-c1ccc2ncc(N3CCNCC3)cc2n1 [Compound 3-2] and report it.
**Result** 200 to 1260 nM

**Query** Find the recorded IC50 belonging to CN(C)C1CCN(c2cnc3ccc(-c4nc[nH]c4-c4cc(Cl)ccc4F)cc3c2)C1 (racemic) [Compound 17-5] and report it.
**Result** 25.1 to 158 nM
